Listing of entries alongside the reported IC50.
TARGET UNDER TEST: CDK2/Cyclin E1 (Homo sapiens)
ASSAY OVERVIEW: ADP-Glo Luminescent Kinase Assay (CDK2/E1-37C)
Assay type: biochemical
EXPERIMENTAL CONTEXT: 0.18 nM CDK2/Cyclin E1, 100 μM ATP, 1.5 μM Histone H1, 37° C., 60 min pre-incubation; read-out: ADPGLO (CDK2/E1-37C): IC50
Description: Inhibition of CDK2/Cyclin E1 activity by the presence of small molecules was evaluated using ADP-Glo Luminescent Kinase Assay (Promega). […] Luminescence was recorded with an Envision plate reader (PerkinElmer). Dose titrations of inhibitors in 100% DMSO were combined with 0.36 nM CDK2/Cyclin E1 in reaction buffer. […] This mixture was incubated at room temperature for 60 minutes before Kinase Detection Solution is added to generate luminescence. […]
PROPERTY LABEL: IC50

C[C@@H](OCC12CCC(CC1)OC2)[C@H](NC(=O)[C@@H]1CN(C(=O)c2cnc(O)cn2)CC12CN(C(=O)C1CC1(C)C)C2)C(=O)N1CCC(c2ccc(C(F)(F)F)c(C(=O)O)c2)CC1 (stereo partly shown) : < 500 nM
COC(=O)[C@@H]1CN(C(=O)[C@@H](NC(=O)[C@@H]2CN(C(=O)c3cnn(Cc4ccc(C#N)cc4)c3)CC23CN(C(=O)C2(C(F)(F)F)CC2)C3)[C@@H](C)OCC23CCC(CC2)OC3)CCN1C(=O)OC(C)(C)C : < 500 nM
C[C@@H](OCC12CCC(CC1)OC2)[C@H](NC(=O)[C@@H]1CN(C(=O)c2cnn(Cc3ccccc3C(=O)O)c2)CC12CN(C(=O)C1(C(F)(F)F)CC1)C2)C(=O)N1CCNC2(CC2)C1 : < 500 nM
C[C@@H](OCC12CCC(CC1)OC2)[C@H](NC(=O)[C@@H]1CN(C(=O)c2cnn(Cc3ccc(C(F)(F)F)cc3)c2)CC12CN(C(=O)C1(C(F)(F)F)CC1)C2)C(=O)N1CCC(c2nnn[nH]2)CC1 : < 500 nM
CCOC(=O)CN(CC1CCCCC1)[C@H]1CCCN(C(=O)[C@@H]2CN(C(=O)c3cncs3)CC23CN(C(=O)[C@H]2CC2(C)C)C3)C1 : 5000 to 10000 nM
C[C@@H](OCC12CCC(CC1)OC2)[C@H](NC(=O)[C@@H]1CN(C(=O)c2cnn(CC3CCNCC3)c2)CC12CN(C(=O)C1(C(F)(F)F)CC1)C2)C(=O)N1CCC(c2ccccc2C(=O)O)CC1 : 500 to 5000 nM
C[C@@H](OCC12CCC(CC1)OC2)[C@H](NC(=O)[C@@H]1CN(C(=O)c2cnn(Cc3ccccc3C(=O)O)c2)CC12CN(C(=O)C1(C(F)(F)F)CC1)C2)C(=O)N1CCN(Cc2ccc(C(F)(F)F)cc2)CC1 : < 500 nM
COc1ccc(S(=O)(=O)NC(=O)[C@@H](NC(=O)[C@@H]2CN(C(=O)c3cnn(Cc4ccccc4)c3)CC23CN(C(=O)[C@H]2CC2(C)C)C3)[C@@H](C)OCC2CCCCC2)cc1 : < 500 nM
C=CCOC(=O)N1CCC2(CC1)CCN(C(=O)[C@@H](NC(=O)[C@@H]1CN(C(=O)c3cnn(Cc4ccccc4C(=O)O)c3)CC13CN(C(=O)C1(C(F)(F)F)CC1)C3)[C@@H](C)OCC13CCC(CC1)OC3)CC2 : < 500 nM
C[C@@H](OCC12CCC(CC1)OC2)[C@H](NC(=O)[C@@H]1CN(C(=O)c2cnn(Cc3ccccc3C(=O)OC(C)(C)C)c2)CC12CN(C(=O)C1(C(F)(F)F)CC1)C2)C(=O)N1CCN(C(=O)OC(C)(C)C)CC1 : < 500 nM
N#Cc1ccc(Cn2cc(C(=O)N3CC(C(=O)N[C@@H](COCC45CCC(CC4)OC5)c4ccc(C(=O)O)cc4)C4(C3)CN(C(=O)C3(C(F)(F)F)CC3)C4)cn2)cc1 (stereo partly shown) : > 10000 nM
C[C@@H](OCC1(C(=O)O)CCCCC1)[C@H](NC(=O)[C@@H]1CN(C(=O)c2cnn(Cc3ccc(C(F)(F)F)cc3)c2)CC12CN(C(=O)C1(C(F)(F)F)CC1)C2)C(=O)N1CCC(c2nccs2)CC1 : 5000 to 10000 nM
CCOC(=O)C(F)(F)CNC(=O)[C@@H](NC(=O)[C@@H]1CN(C(=O)c2cnn(Cc3ccccc3)c2)CC12CN(C(=O)[C@H]1CC1(C)C)C2)[C@@H](C)OCC1CCCCC1 : < 500 nM
C[C@@H](OCC12CCC(CC1)OC2)[C@@H](COC1CCOCC1)NC(=O)[C@@H]1CN(C(=O)c2cncs2)CC12CN(C(=O)C1(C(F)(F)F)CC1)C2 : 500 to 5000 nM
C[C@@H](OCC12CCC(CC1)OC2)[C@H](NC(=O)[C@@H]1CN(C(=O)c2cnc(O)cn2)CC12CN(C(=O)C1(C(F)(F)F)CC1)C2)C(=O)N1CCC(c2ccc(C(F)(F)F)cc2C(=O)O)CC1 : < 500 nM
CC1(C)C[C@@H]1C(=O)N1CC2(CN(C(=O)c3cncs3)C[C@H]2C(=O)N2CCN(CC3CCCCC3)C(CC(=O)NS(C)(=O)=O)C2)C1 (single isomer, unassigned) : > 10000 nM
COC(=O)C1CCN(C(=O)[C@@H](NC(=O)[C@@H]2CN(C(=O)c3cnn(Cc4ccccc4)c3)CC23CN(C(=O)[C@H]2CC2(C)C)C3)[C@@H](C)OCC2CCCCC2)CC1 : < 500 nM
CNC(=O)C(C)(C)CNC(=O)[C@@H](NC(=O)[C@@H]1CN(C(=O)c2cnn(Cc3ccccc3)c2)CC12CN(C(=O)[C@H]1CC1(C)C)C2)[C@@H](C)OCC1CCCCC1 : < 500 nM
C[C@@H](OCC1CCCCC1)[C@H](NC(=O)[C@@H]1CN(C(=O)c2cnn(Cc3ccccc3)c2)CC12CN(C(=O)[C@H]1CC1(C)C)C2)C(=O)NS(C)(=O)=O : < 500 nM

----------
TARGET UNDER TEST: CDK2/Cyclin E1 (Homo sapiens)
ASSAY OVERVIEW: ADP-Glo Luminescent Kinase Assay (CDK2/E1-37C)
Type: biochemical
EXPERIMENTAL CONTEXT: 0.18 nM CDK2/Cyclin E1, 100 μM ATP, 1.5 μM Histone H1, 37° C., 60 min pre-incubation; read-out: ADPGLO (CDK2/E1-37C): IC50
PROPERTY LABEL: IC50

COC(=O)C(C)(C)Oc1ccc(C2CCN(C(=O)[C@@H](NC(=O)[C@@H]3CN(C(=O)c4cnn(Cc5ccc(C(F)(F)F)cc5)c4)CC34CN(C(=O)C3(C(F)(F)F)CC3)C4)[C@@H](C)OCC34CCC(CC3)OC4)CC2)cc1C(F)(F)F [Example I-98] : > 10 µM
C[C@@H](OCC12CCC(CC1)OC2)[C@H](NC(=O)[C@@H]1CN(C(=O)c2cnn(Cc3ccc(C(F)(F)F)cc3)c2)CC12CN(C(=O)C1(C(F)(F)F)CC1)C2)C(=O)N1CCC(c2ccc(OC(C)(C)C(=O)O)c(C(F)(F)F)c2)CC1 : < 0.5 µM

----------
TARGET UNDER TEST: CDK2/Cyclin E1 (Homo sapiens, UniProt P24941)
ASSAY OVERVIEW: CDK2/Cyclin E1 Caliper LabChip EZ Reader mobility shift assay
Type: biochemical
EXPERIMENTAL CONTEXT: 2.5 nM CDK2/Cyclin E1, 100 μM ATP, 1.5 μM fluorescent peptide, 30 min pre-incubation; read-out: Caliper Assay (CDK2/CCNE1): IC50
Description: Inhibition of CDK2/Cyclin E1 activity in the presence of compounds of the present disclosure was evaluated using a CaliperLabChip® EZ Reader mobility shift assay. […] The peptide substrate and product were measured, and the conversion ratio was used to determine the inhibition (as % activity and IC50 values) of CDK2/Cyclin E1. […]
PROPERTY LABEL: IC50

COC(=O)[C@@H]1CCCCN1C(=O)[C@@H](NC(=O)[C@@H]1CN(C(=O)c2cnn(Cc3ccccc3)c2)CC12CN(C(=O)[C@H]1CC1(C)C)C2)[C@@H](C)OCC1CCCCC1 : < 10 nM
COC(=O)C1(CNC(=O)[C@@H](NC(=O)[C@@H]2CN(C(=O)c3cnn(Cc4ccccc4)c3)CC23CN(C(=O)[C@H]2CC2(C)C)C3)[C@@H](C)OCC2CCCCC2)CC1 : < 10 nM
C[C@@H](OCC1CCCCC1)[C@H](NC(=O)[C@@H]1CN(C(=O)c2cnn(Cc3ccccc3)c2)CC12CN(C(=O)[C@H]1CC1(C)C)C2)C(=O)N1CCC[C@@H](C(=O)O)C1 : < 10 nM
COC(=O)[C@@H](NC(=O)[C@@H]1CN(C(=O)c2cnn(Cc3ccccc3)c2)CC12CN(C(=O)[C@H]1CC1(C)C)C2)[C@@H](C)OCC1CCC2(CCC2)CC1 : < 10 nM
COC[C@H]1CCCN(C(=O)[C@@H](NC(=O)[C@H]2CN(C(=O)c3cncs3)CC23CN(C(=O)[C@H]2CC2(C)C)C3)[C@@H](C)OCC2CCCCC2)C1 : 100 to 1000 nM
CCOC(=O)C(F)(F)CNC(=O)[C@@H](NC(=O)[C@@H]1CN(C(=O)c2cnn(Cc3ccccc3)c2)CC12CN(C(=O)[C@H]1CC1(C)C)C2)[C@@H](C)OCC1CCCCC1 : < 10 nM
CNC(=O)[C@@H](NC(=O)[C@@H]1CN(C(=O)c2cncs2)CC12CN(CC1CCCO1)C2)[C@@H](C)OCC1(CO)CC=CCC1 (stereo partly drawn) : 100 to 1000 nM
C[C@@H](OCC1CCC2(CCC2)CC1)[C@H](NC(=O)[C@@H]1CN(C(=O)c2cnn(Cc3ccccc3)c2)CC12CN(C(=O)[C@H]1CC1(C)C)C2)C(=O)O : < 10 nM
Cc1nc(C)c(C(=O)N2C[C@@H](C(=O)N[C@H](C(=O)N3CCC(OC(F)(F)F)CC3)[C@@H](C)OCC3(CO)CC=CCC3)C3(C2)CN(C(=O)[C@H]2CC2(C)C)C3)s1 (stereo in doubt) : 10 to 100 nM
C[C@@H](OCC12CCC(CC1)OC2)[C@H](NC(=O)[C@@H]1CN(C(=O)c2cncs2)CC12CN(CC1CCCO1)C2)C(=O)N1CCC(c2nccs2)CC1 (stereo partly drawn) : > 10000 nM
C[C@@H](OCC1CCCCC1)[C@H](NC(=O)[C@@H]1CN(C(=O)c2cnn(Cc3ccccc3)c2)CC12CN(C(=O)[C@H]1CC1(C)C)C2)C(=O)NCCC(=O)O : < 10 nM
C[C@@H](OCC1CCCCC1)[C@H](NC(=O)[C@@H]1CN(C(=O)c2cnn(Cc3ccccc3)c2)CC12CN(C(=O)[C@H]1CC1(C)C)C2)C(=O)N1CCC(c2ccc(C(=O)O)cc2)CC1 : < 10 nM
Cc1nc(C)c(C(=O)N2C[C@@H](C(=O)NC([C@@H](C)OCC3(CO)CC=CCC3)C(C)(C)O)C3(C2)CN(C(=O)C(C)(C)C2CC2)C3)s1 (stereo partly drawn) : 1000 to 10000 nM
COC1CCN(C(=O)[C@@H](NC(=O)[C@@H]2CN(C(=O)c3sc(C)nc3C)CC23CN(C(=O)[C@H]2CC2(C)C)C3)[C@@H](C)OCC2(CO)CC=CCC2)CC1 (stereo in doubt) : 10 to 100 nM
COC1CCN(C(=O)[C@@H](NC(=O)[C@@H]2CN(C(=O)c3cncs3)CC23CN(C(=O)[C@H]2CC2(C)C)C3)[C@@H](C)OCC2(CO)CC=CCC2)CC1 (stereo in doubt) : < 10 nM
